- system: human cathepsin K (Homo sapiens)
- Construct: The proform of cathepsin K was converted to mature cathepsin K by brief exposure to pH 4; made in house; host or cells: baculovirus; Trichoplusia ni High Five cells (virus raised in Sf-9)
- Sequence (P43235 115-329): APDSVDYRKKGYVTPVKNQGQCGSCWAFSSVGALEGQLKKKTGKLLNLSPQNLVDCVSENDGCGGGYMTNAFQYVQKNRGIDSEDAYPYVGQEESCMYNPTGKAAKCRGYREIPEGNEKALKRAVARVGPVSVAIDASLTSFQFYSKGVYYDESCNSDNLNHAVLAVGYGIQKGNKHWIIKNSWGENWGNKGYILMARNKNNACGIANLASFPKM
- assayMethodText: Cathepsin K inhibition assay, fluorogenic substrate Cbz-Phe-Arg-AMC, progress curve method
- Format: biochemical
- conditionSummary: Table 1; human recombinant enzyme, pH 5.5, 30° C., 10 μM substrate; read-out: hCat K Ki
pKi: −log10 of the molar value.
Catalogue of pKi readings, one per entry.

# compound, system, pKi
rows = [
    ("CCCC[C@H](NC(=O)O[C@H](Cn1cnc(-c2ccc(C(F)(F)F)cc2)c1)C(C)(C)C)C(=O)C(=O)Nc1nccs1 [Example 51]", "human cathepsin K (Homo sapiens)", "7.00 to 9.00"),
    ("CCCC[C@H](NC(=O)O[C@H](c1cccc(-c2ccccc2)c1)C(C)(C)C)C(=O)C(=O)Nc1ccn[nH]1 [Example 42]", "human cathepsin K (Homo sapiens)", "9.00 to 11.00"),
    ("CCCC[C@H](NC(=O)O[C@H](Cc1nnc(-c2ccc(F)cc2)o1)C(C)(C)C)C(=O)C(=O)NCc1cccnc1 [Example 4]", "human cathepsin K (Homo sapiens)", "7.00 to 9.00"),
]

Alright, here's another compound for you.
In: I have this compound here, CCCC[C@H](NC(=O)O[C@H](CCc1nnc(-c2ccc(C(F)(F)F)cc2)o1)C(C)(C)C)C(=O)C(=O)Nc1ccn[nH]1 [Example 26] , and I need its recorded pKi.
Out: 9.00 to 11.00
